tgt: T1, Recombinant Human FGFR2 alpha (IIIc) Fc Chimera Protein, CF (R&D systems, 712-FR-050) (human, UniProt P21802 22-377)
T1 construct: bought; not shown: Fc part of the chimera
assay.remarks: ELISA on plate-bound FGFR2-Fc
Bridge positions count the residues as written; N and C are the ends. Ends that are not written are not given here. COCH2 = acetyl group that carries the bridge
Recorded ELISA luminescence signal at 10 nmol/L peptide, relative to SEQ ID NO: 47 (=1) by entry
property.measured: ELISA luminescence signal at 10 nmol/L peptide, relative to SEQ ID NO: 47 (=1)

binder: YCEFNYLDPEQYQYFIYFK(COCH2)Y (thioether 2-19 (inferred)) [cyclic peptide SEQ ID NO: 171]
observed.result: 0.5 to 0.7 ratio
//
binder: YCEENNLDPEQYQYFIYFK(COCH2)Y (thioether 2-19 (inferred)) [cyclic peptide SEQ ID NO: 189]
observed.result: 0.5 to 0.7 ratio
//
binder: YCEENYLDPEQYQYFIAFK(COCH2)Y (thioether 2-19) [cyclic peptide SEQ ID NO: 333]
observed.result: ≥ 0.7 ratio

Where do the numbers come from? From patent US20260008815A1.
